Provenance of the data: patent US7754718B2

- Tested on: HBV
- PROTOCOL: In vitro antiviral assay for HBV (Table 1)
- Assay type: cell-based, Hepatitis B virus
- TEST CONTEXT: Hepatitis B virus, read-out: Antiviral Activities (EC50, μM) HBV
MEASURED PARAMETER: EC50

Output EC50 of `CC(=O)NN1Cc2cc3ccc4c(c3c(-c3ccc5c(c3)OCO5)c2C1=O)OCO4`
> 20 µM

Output EC50 of `COc1ccc(-c2c(C(=O)O)c(C(N)=O)cc3ccc4c(c23)OCO4)cc1OC`
0.8 µM

Output EC50 of `NC(=O)c1cc2ccc3c(c2c(-c2ccc4c(c2)OCO4)c1C(=O)O)OCO3`
0.8 µM

Output EC50 of `CN(C)C(=O)c1cc2ccc3c(c2c(-c2ccc4c(c2)OCO4)c1C(=O)O)OCO3`
> 10 µM

Output EC50 of `CC(=O)NN1Cc2c(cc3ccc4c(c3c2-c2ccc3c(c2)OCO3)OCO4)C1=O`
1 µM

Output EC50 of `O=C(OCCCOCc1ccccc1)c1cc2ccc3c(c2c(-c2ccc4c(c2)OCO4)c1COCc1ccccc1)OCO3`
> 10 µM

Output EC50 of `O=C1OC(=O)c2c1cc1ccc3c(c1c2-c1ccc2c(c1)OCO2)OCO3`
> 10 µM

Output EC50 of `NC(=O)c1cc2ccc3c(c2c(-c2ccc4c(c2)OCO4)c1C(N)=O)OCO3`
> 20 µM

Output EC50 of `COC(=O)c1cc2ccc3c(c2c(-c2ccc4c(c2)OCO4)c1C(=O)OC)OCO3`
> 20 µM

Output EC50 of `Nc1ccn([C@@H]2CS[C@H](CO)O2)c(=O)n1`
0.02 µM

Output EC50 of `O=C(NCCCOCc1ccccc1)c1cc2ccc3c(c2c(-c2ccc4c(c2)OCO4)c1COCc1ccccc1)OCO3`
> 10 µM

Output EC50 of `O=c1[nH][nH]c(=O)c2c(-c3ccc4c(c3)OCO4)c3c4c(cc(I)c3cc12)OCO4`
> 10 µM

Output EC50 of `O=C1c2cc3ccc4c(c3c(-c3ccc5c(c3)OCO5)c2C(=O)N1O)OCO4`
> 5 µM

Output EC50 of O=C([O-])c1cc2c(I)cc3c(c2c(-c2ccc4c(c2)OCO4)c1CO)OCO3.[Na+] [Compound 46, monosodium salt]
> 18 µM

Output EC50 of `CCOC(=O)c1c(C(=O)OCC)c(-c2ccc3c(c2)OCO3)c2c3c(ccc2c1O)OCO3`
> 10 µM

Output EC50 of `O=C1OCc2c1cc1c(Br)cc3c(c1c2-c1ccc2c(c1)OCO2)OCO3`
> 60 µM
